# procedure.summary: Effect of pH on water solubility (saturated concentration by HPLC)
# condition.info: 22 °C, pH 4.2, aqueous buffer, thermodynamic from solid
reported.property: solubility at 15 h

For the compound shown here, O=C(O)C[C@H](NC(=O)c1cc(=O)[nH]c(=O)[nH]1)C(=O)O [Orotic acid-Asp] , give the reported solubility at 15 h.
> 111 mg/mL

====

# procedure.summary: Effect of pH on water solubility (saturated concentration by HPLC)
# condition.info: 22 °C, pH 2.3, water, thermodynamic from solid
reported.property: solubility thermodynamic at 15 h (mg/mL)
Give bare numbers, in mg/mL.

molecule: O=C(O)CC[C@H](NC(=O)c1cc(=O)[nH]c(=O)[nH]1)C(=O)O [Orotic acid-Glu]
reported.property: solubility thermodynamic at 15 h
endpoint.result: 13

Now for another entry.
For the molecule shown here, O=C(O)C[C@H](NC(=O)c1cc(=O)[nH]c(=O)[nH]1)C(=O)O [Orotic acid-Asp] , give the reported solubility thermodynamic at 15 h.
9.5

====

# procedure.summary: Effect of pH on water solubility (saturated concentration by HPLC)
# condition.info: 22 °C, pH 2.8, aqueous buffer, thermodynamic from solid
reported.property: solubility thermodynamic at 15 h (µg/mL)
Give bare numbers, in µg/mL.

For the molecule shown here, O=C(O)CNC(=O)c1cc(=O)[nH]c(=O)[nH]1 , give the reported solubility thermodynamic at 15 h.
1100

====

# procedure.summary: Effect of pH on water solubility (saturated concentration by HPLC)
# condition.info: 22 °C, pH 6.1, aqueous buffer, thermodynamic from solid
reported.property: solubility thermodynamic at 15 h
Answer with the figure and its unit, nothing else.

For the compound shown here, O=C(O)CNC(=O)c1cc(=O)[nH]c(=O)[nH]1 [Orotic acid-Gly] , give the reported solubility thermodynamic at 15 h.
66 mg/mL

====

# procedure.summary: Effect of pH on water solubility (saturated concentration by HPLC)
# condition.info: 22 °C, pH 4.5, aqueous buffer, thermodynamic from solid
reported.property: solubility thermodynamic at 15 h (mg/mL)
Answers are plain numbers, in mg/mL.

For the compound shown here, O=C(O)CNC(=O)c1cc(=O)[nH]c(=O)[nH]1 [Orotic acid-Gly] , give the reported solubility thermodynamic at 15 h.
16.6

====

# procedure.summary: Effect of pH on water solubility (saturated concentration by HPLC)
# condition.info: 22 °C, pH 5.1, aqueous buffer, thermodynamic from solid
reported.property: solubility thermodynamic at 15 h (mg/mL)
Give bare numbers, in mg/mL.

For the compound shown here, O=C(O)CNC(=O)c1cc(=O)[nH]c(=O)[nH]1 [Orotic acid-Gly] , give the reported solubility thermodynamic at 15 h.
38.3

====

# procedure.summary: Effect of pH on water solubility (saturated concentration by HPLC)
# condition.info: 22 °C, pH 5.2, aqueous buffer, thermodynamic from solid
reported.property: solubility thermodynamic at 15 h (mg/mL)
One number for each entry, in mg/mL.

For the compound shown here, O=C(O)CC[C@H](NC(=O)c1cc(=O)[nH]c(=O)[nH]1)C(=O)O [Orotic acid-Glu] , give the reported solubility thermodynamic at 15 h.
54.3

====

# procedure.summary: Effect of pH on water solubility (saturated concentration by HPLC)
# condition.info: 22 °C, pH 4, aqueous buffer, thermodynamic from solid
reported.property: solubility thermodynamic at 15 h
Answer with the figure and its unit, nothing else.

Respectfully, I request solubility thermodynamic at 15 h for each entry included below.
1. O=C(O)CNC(=O)c1cc(=O)[nH]c(=O)[nH]1
2. O=C(O)C[C@H](NC(=O)c1cc(=O)[nH]c(=O)[nH]1)C(=O)O

5.5 mg/mL
98.2 mg/mL

====

# procedure.summary: Effect of pH on water solubility (saturated concentration by HPLC)
# condition.info: 22 °C, pH 3.6, aqueous buffer, thermodynamic from solid
reported.property: solubility thermodynamic at 15 h (µg/mL)
Answers are plain numbers, in µg/mL.

For the compound shown here, O=C(O)CNC(=O)c1cc(=O)[nH]c(=O)[nH]1 , give the reported solubility thermodynamic at 15 h.
3200

====

# procedure.summary: physchem
# condition.info: 22 °C, pH 7.2, aqueous buffer, thermodynamic from solid
reported.property: solubility thermodynamic at 15 h (mg/mL)
Give bare numbers, in mg/mL.

For the compound shown here, O=C(N[C@@H](Cc1c[nH]cn1)C(=O)O)c1cc(=O)[nH]c(=O)[nH]1 , give the reported solubility thermodynamic at 15 h.
12.5
